Origin of the recorded values: patent US7576099B2

This listing pairs compounds with measured inhibition at 0.3 µM.
target: VR1 (Homo sapiens); assay: Calcium uptake assay (Fura2, Flex Station) in HEK 293 cells expressing hVR1; type: cell-based; set-up: expressed in transfected cells; host or cells: T-REx HEK 293 (Invitrogen), pcDNA5/TO vector, doxycycline induced; details: HEK293; 0.3 μM compound; low pH (protons) as agonist; HEK 293 cells expressing hVR1; read-out: Low pH % Inhib. @ 0.3 μM
Sequence (Q8NER1 whole entry): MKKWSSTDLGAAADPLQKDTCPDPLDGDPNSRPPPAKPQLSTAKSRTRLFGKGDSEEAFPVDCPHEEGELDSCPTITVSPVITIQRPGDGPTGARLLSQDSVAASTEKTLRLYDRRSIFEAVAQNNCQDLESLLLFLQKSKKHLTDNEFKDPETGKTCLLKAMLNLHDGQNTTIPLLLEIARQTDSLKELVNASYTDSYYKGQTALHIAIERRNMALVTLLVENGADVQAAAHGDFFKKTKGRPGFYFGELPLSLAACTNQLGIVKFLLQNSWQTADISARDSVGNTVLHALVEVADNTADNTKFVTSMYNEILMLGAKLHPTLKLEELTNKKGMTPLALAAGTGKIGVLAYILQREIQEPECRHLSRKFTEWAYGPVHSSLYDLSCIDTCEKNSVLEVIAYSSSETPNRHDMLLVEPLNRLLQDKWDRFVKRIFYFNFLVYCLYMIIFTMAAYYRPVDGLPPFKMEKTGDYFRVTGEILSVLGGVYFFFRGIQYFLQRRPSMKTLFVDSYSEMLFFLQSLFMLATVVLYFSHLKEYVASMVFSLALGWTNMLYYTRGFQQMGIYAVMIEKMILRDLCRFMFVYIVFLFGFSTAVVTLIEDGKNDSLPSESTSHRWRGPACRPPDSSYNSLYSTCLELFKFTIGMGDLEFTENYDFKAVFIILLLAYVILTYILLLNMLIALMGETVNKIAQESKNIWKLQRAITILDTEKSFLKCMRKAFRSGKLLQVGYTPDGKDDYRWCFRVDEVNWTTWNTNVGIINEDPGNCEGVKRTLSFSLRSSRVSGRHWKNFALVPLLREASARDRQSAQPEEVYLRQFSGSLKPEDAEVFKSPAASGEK

| COMPOUND | UNIT_STRING | inhibition at 0.3 µM |
| --- | --- | --- |
| CN1CCC(C)(C)c2ccc(NC(=O)c3ccc(C#CC(C)(C)C)cc3)cc21 | % | 83 |
| CC(C)(C)C#Cc1ccc(C(=O)Nc2cccc3cnccc23)cc1OCCN1CCOCC1 | % | 69 |
| Cc1cc2c(NC(=O)c3ccc(/C=C/C(F)(F)F)cc3)cccc2nn1 | % | 9 |
| O=C(Oc1ccc2c(c1)OC(CO)CO2)c1ccc(C#CC2CC2)cc1 (centres unmarked) | % | 83 |
| CC1(C)Oc2ccc(NC(=O)c3ccc(/C=C/C(F)(F)F)cc3)cc2NC1=O | % | 19 |
| CC(C)(C)C#Cc1ccc(C(=O)Nc2cnc3ccccc3c2)cn1 | % | 101 |
| O=C(Oc1ccc2c(c1)OCC(CO)O2)c1ccc(C#CC2CC2)cc1 (centres unmarked) | % | 98 |
| Cc1cc(/C=C/C(F)(F)F)ccc1C(=O)Nc1cnc2c(c1)OCC(O)CN2 (centres unmarked) | % | 87 |
| O=C(Nc1ccc2c(c1)OCCN2)c1ccc(/C=C/C(F)(F)F)cc1 | % | 123 |
| O=C(Nc1ccc2c(c1)NCCO2)c1ccc(/C=C/C(F)(F)F)cc1 | % | 14 |
| O=C1COc2cc(NC(=O)c3ccc(/C=C/C(F)(F)F)cc3)ccc2N1 | % | 10 |
| CC1(C)CNc2cc(NC(=O)c3ccc(/C=C/C(F)(F)F)cc3)ccc2O1 | % | 10 |
| O=C1COc2ccc(NC(=O)c3ccc(/C=C/C(F)(F)F)cc3)cc2N1 | % | 58 |
| Cc1cc(/C=C/C(F)(F)F)ccc1C(=O)NC1=CC2CNCCC2N=C1 (centres unmarked) | % | 54 |
